B1: HDV Ribozyme (parent)
chain: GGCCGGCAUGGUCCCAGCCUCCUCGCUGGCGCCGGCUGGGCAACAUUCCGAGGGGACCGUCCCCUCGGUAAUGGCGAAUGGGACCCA

variants of: B1; experiment: self-cleavage, relative activity (ratio to wild type); higher = more cleavage; co-transcriptional
Decision: self-cleavage >= 0.5 yields t, all other cases yield f.

Past entries and their recorded results:
{"Polymer Sequence": "GGCCGGCAUGGUCCCAGCCUCCUCGCUGGCGCCGGCUGGGCAACAUUCCGAGGGGACCGUCCCCUCGGGAAUGGCGACUGGGACCCA [U69G A78C]", "Cat": "f"}
{"Polymer Sequence": "GGCCGGAAUGGUCCCAGCCUCCUCGCUGGCGCCGGCUGGGCAACAUUCCGAGUGGACCGUCCCCUCGGUAAUGGCGAAUGGGACCCA [C7A G53U]", "Cat": "t"}
{"Polymer Sequence": "GGCCGGCAUGGUCCCAGCCUCCUCGCUGGCGCCGGCUCGGAAACAUUCCGAGGGGACCGUCCCCUCGGUAAUGGCGAAUGGGACCCA [G38C C41A]", "Cat": "t"}
{"Polymer Sequence": "GUCCGGCAUGGUCCCAGCCUCCUCGCUGGCGCCGGCUGGGCAACAUUCCGAGGGGACCGUCCCCUAGGUAAUGGCGAAUGGGACCCA [G2U C66A]", "Cat": "f"}
{"Polymer Sequence": "GGCCGGCAUGGUCCCAGCCUCCUCGCUGGCGCCGGCUGGGCAACAUUCCGAGGGGACCGUCCCCUCUGUAAUGGCGAAUGGGACCAA [G67U C86A]", "Cat": "t"}
{"Polymer Sequence": "GGCCGGCAUGGUCCCAGCCUCCUCGCUGGCGCCGGCUGGGCAACAUUCCGAGGGGACCGUCCCCUCGGUAAAGGUGAAUGGGACCCA [U72A C75U]", "Cat": "f"}

Data request: Dear colleague, could you confirm whether GGCCGGCAUGGUCCCAGCCUCCUCGAUGGCGGCGGCUGGGCAACAUUCCGAGGGGACCGUCCCCUCGGUAAUGGCGAAUGGGACCCA [C26A C32G] has self-cleavage at or above 0.5?
Data returned: f

Data request: Now consider GGCCGGCAUGGUCCCAUCCUCCUCGCUGGCGCCGGCUGGGCAACAUUCCGAGGGGACCAUCCCCUCGGUAAUGGCGAAUGGGACCCA [G17U G59A] and answer again.
Data returned: f
